Recorded FPD (field-potential duration), % change from baseline for the following compounds
test system: hiPSC-CMs (iCell-Cardiomyocytes^2); settings: 0.3 µM, 48h
Form entry: value (%) — number only.

Lookup: Which FPD (field-potential duration), % change from baseline value is on record for "C#Cc1cccc(Nc2ncnc3cc(OCCOC)c(OCCOC)cc23)c1" ?
Found: 16.2

Lookup: Which FPD (field-potential duration), % change from baseline value is on record for "CCN(CC)CCNC(=O)c1c(C)[nH]c(/C=C2\C(=O)Nc3ccc(F)cc32)c1C" ?
Found: 120.5

Lookup: Which FPD (field-potential duration), % change from baseline value is on record for COc1nc(N)nc2c1ncn2[C@@H]1O[C@H](COP(=O)(N[C@@H](C)C(=O)OCC(C)(C)C)Oc2cccc3ccccc23)[C@@H](O)[C@@]1(C)O (stereo partly drawn) ?
Found: -12.4

====

system: hiPSC-CMs (iCell-Cardiomyocytes^2); details: 0.1 µM, 2h
Is FPDc (field-potential duration corrected by beat-rate), % change from baseline at least 10%? Then label 1. If not, label 0.

[
  {
    "molecule": "O=C(O)COCCN1CCN(C(c2ccccc2)c2ccc(Cl)cc2)CC1 (stereo not drawn)",
    "study target": "hiPSC-CMs (iCell-Cardiomyocytes^2)",
    "category": "label 0"
  },
  {
    "molecule": "CCN(CC)CCNC(=O)c1c(C)[nH]c(/C=C2\\C(=O)Nc3ccc(F)cc32)c1C",
    "study target": "hiPSC-CMs (iCell-Cardiomyocytes^2)",
    "category": "label 1"
  },
  {
    "molecule": "COc1cccc2c1C(=O)c1c(O)c3c(c(O)c1C2=O)C[C@@](O)(C(=O)CO)C[C@@H]3O[C@H]1C[C@H](N)[C@H](O)[C@H](C)O1",
    "study target": "hiPSC-CMs (iCell-Cardiomyocytes^2)",
    "category": "label 0"
  },
  {
    "molecule": "COc1cc2c(Nc3ccc(Br)cc3F)ncnc2cc1OCC1CCN(C)CC1",
    "study target": "hiPSC-CMs (iCell-Cardiomyocytes^2)",
    "category": "label 1"
  },
  {
    "molecule": "N=C(N)c1ccc(OCCCCCOc2ccc(C(=N)N)cc2)cc1",
    "study target": "hiPSC-CMs (iCell-Cardiomyocytes^2)",
    "category": "label 0"
  }
]

We next turn to a different molecule, shown below.
Lookup: Hi, just wondering whether "Cc1cn(-c2cc(NC(=O)c3ccc(C)c(Nc4nccc(-c5cccnc5)n4)c3)cc(C(F)(F)F)c2)cn1" shows FPDc (field-potential duration corrected by beat-rate), % change from baseline of 10% or higher.
Found: label 0

====

Recorded FPDc (field-potential duration corrected by beat-rate), % change from baseline for the following compounds
test system: hiPSC-CMs (iCell-Cardiomyocytes^2); details: 0.3 µM, 72h
Form entry: value (%) — number only.

Here are 4 compounds together with their reported answers.
[
  {
    "compound": "N=C(N)c1ccc(OCCCCCOc2ccc(C(=N)N)cc2)cc1 [Pentamidine]",
    "study target": "hiPSC-CMs (iCell-Cardiomyocytes^2)",
    "recorded result": 6.4
  },
  {
    "compound": "C#Cc1cccc(Nc2ncnc3cc(OCCOC)c(OCCOC)cc23)c1 [Erlotinib]",
    "study target": "hiPSC-CMs (iCell-Cardiomyocytes^2)",
    "recorded result": 11.4
  },
  {
    "compound": "CCN(CC)CCNC(=O)c1c(C)[nH]c(/C=C2\\C(=O)Nc3ccc(F)cc32)c1C [Sunitinib]",
    "study target": "hiPSC-CMs (iCell-Cardiomyocytes^2)",
    "recorded result": 101
  },
  {
    "compound": "Cc1cn(-c2cc(NC(=O)c3ccc(C)c(Nc4nccc(-c5cccnc5)n4)c3)cc(C(F)(F)F)c2)cn1 [Nilotinib]",
    "study target": "hiPSC-CMs (iCell-Cardiomyocytes^2)",
    "recorded result": 48.5
  }
]

Lookup: Query for hiPSC-CMs (iCell-Cardiomyocytes^2): what FPDc (field-potential duration corrected by beat-rate), % change from baseline does the record show for O=C(O)COCCN1CCN(C(c2ccccc2)c2ccc(Cl)cc2)CC1 (centres unmarked) [Cetirizine] ?
Found: 7.7

Lookup: Query for hiPSC-CMs (iCell-Cardiomyocytes^2): what FPDc (field-potential duration corrected by beat-rate), % change from baseline does the record show for CC(C)(Sc1cc(C(C)(C)C)c(O)c(C(C)(C)C)c1)Sc1cc(C(C)(C)C)c(O)c(C(C)(C)C)c1 [Probucol] ?
Found: -0.2

Lookup: Query for hiPSC-CMs (iCell-Cardiomyocytes^2): what FPDc (field-potential duration corrected by beat-rate), % change from baseline does the record show for COc1nc(N)nc2c1ncn2[C@@H]1O[C@H](COP(=O)(N[C@@H](C)C(=O)OCC(C)(C)C)Oc2cccc3ccccc23)[C@@H](O)[C@@]1(C)O (some centres unmarked) [BMS-986094] ?
Found: -11.6

Lookup: Query for hiPSC-CMs (iCell-Cardiomyocytes^2): what FPDc (field-potential duration corrected by beat-rate), % change from baseline does the record show for COc1cc2c(Nc3ccc(Br)cc3F)ncnc2cc1OCC1CCN(C)CC1 [Vandetanib] ?
Found: 126.3

====

tested on: hiPSC-CMs (iCell-Cardiomyocytes^2); details: 0.1 µM, 72h
assay readout: Cessation of beating, number of observations/total well numbers

[
  {
    "smiles structure": "COc1cc2c(Nc3ccc(Br)cc3F)ncnc2cc1OCC1CCN(C)CC1",
    "recorded result": "0/5"
  }
]

Lookup: Query for hiPSC-CMs (iCell-Cardiomyocytes^2): what Cessation of beating, number of observations/total well numbers does the record show for "COc1cccc2c1C(=O)c1c(O)c3c(c(O)c1C2=O)C[C@@](O)(C(=O)CO)C[C@@H]3O[C@H]1C[C@H](N)[C@H](O)[C@H](C)O1" ?
Found: 0/5

Lookup: Query for hiPSC-CMs (iCell-Cardiomyocytes^2): what Cessation of beating, number of observations/total well numbers does the record show for "N=C(N)c1ccc(OCCCCCOc2ccc(C(=N)N)cc2)cc1" ?
Found: 0/6

Lookup: Query for hiPSC-CMs (iCell-Cardiomyocytes^2): what Cessation of beating, number of observations/total well numbers does the record show for "Cc1cn(-c2cc(NC(=O)c3ccc(C)c(Nc4nccc(-c5cccnc5)n4)c3)cc(C(F)(F)F)c2)cn1" ?
Found: 0/5

====

System: hiPSC-CMs (iCell-Cardiomyocytes^2)
Settings: 3 µM; 2h
Method: Cells were seeded according to the instructions of the cell provider, in fibronectin-coated 48-well MEA plates (Axion Cytoview Plates, M768-tMEA-48B) at a density suited to form a monolayer (i.e., 50 K/well) and maintained in culture in a stage incubator (37°C, 5% CO2). […] The potential presence of various arrhythmic events was evaluated and noted during the data analysis. […]
assay readout: Beating below threshold, number of observations/total well numbers

[
  {
    "compound": "N=C(N)c1ccc(OCCCCCOc2ccc(C(=N)N)cc2)cc1",
    "recorded result": "0/6"
  },
  {
    "compound": "COc1cccc2c1C(=O)c1c(O)c3c(c(O)c1C2=O)C[C@@](O)(C(=O)CO)C[C@@H]3O[C@H]1C[C@H](N)[C@H](O)[C@H](C)O1",
    "recorded result": "0/5"
  },
  {
    "compound": "COc1nc(N)nc2c1ncn2[C@@H]1O[C@H](COP(=O)(N[C@@H](C)C(=O)OCC(C)(C)C)Oc2cccc3ccccc23)[C@@H](O)[C@@]1(C)O (stereo partly drawn)",
    "recorded result": "0/5"
  },
  {
    "compound": "COc1cc2c(Nc3ccc(Br)cc3F)ncnc2cc1OCC1CCN(C)CC1",
    "recorded result": "0/5"
  }
]

Lookup: Which Beating below threshold, number of observations/total well numbers value is on record for "CC(C)(Sc1cc(C(C)(C)C)c(O)c(C(C)(C)C)c1)Sc1cc(C(C)(C)C)c(O)c(C(C)(C)C)c1" ?
Found: 0/5

Lookup: Which Beating below threshold, number of observations/total well numbers value is on record for "C#Cc1cccc(Nc2ncnc3cc(OCCOC)c(OCCOC)cc23)c1" ?
Found: 0/5

====

Recorded FPDc (field-potential duration corrected by beat-rate), % change from baseline for the following compounds
test system: hiPSC-CMs (iCell-Cardiomyocytes^2); details: 1 µM, 24h
Form entry: value (%) — number only.

Here are 3 compounds together with their reported answers.
[
  {
    "compound": "COc1nc(N)nc2c1ncn2[C@@H]1O[C@H](COP(=O)(N[C@@H](C)C(=O)OCC(C)(C)C)Oc2cccc3ccccc23)[C@@H](O)[C@@]1(C)O (stereo partly shown) [BMS-986094]",
    "recorded result": -6
  },
  {
    "compound": "C[C@H](CS)C(=O)N1CCC[C@H]1C(=O)O [Captopril]",
    "recorded result": 5.1
  },
  {
    "compound": "CC1(C)S[C@@H]2[C@H](NC(=O)[C@H](N)c3ccc(O)cc3)C(=O)N2[C@H]1C(=O)O [Amoxicillin]",
    "recorded result": 2.1
  }
]

Lookup: Which FPDc (field-potential duration corrected by beat-rate), % change from baseline value is on record for O=C(O)COCCN1CCN(C(c2ccccc2)c2ccc(Cl)cc2)CC1 (stereo not shown) [Cetirizine] ?
Found: 19.6
